TARGET: T1, GST-PSD95 fusion protein (PDZ domains 1-3) (human, UniProt P31016 56-395 (rat entry))
T1 construct: also called human post-synaptic density protein 95; not shown: glutathione S-transferase encoded by vector pGEX-3X (Pharmacia)
T1 sequence (P31016 other isoform, or with tags, fused parts or gaps): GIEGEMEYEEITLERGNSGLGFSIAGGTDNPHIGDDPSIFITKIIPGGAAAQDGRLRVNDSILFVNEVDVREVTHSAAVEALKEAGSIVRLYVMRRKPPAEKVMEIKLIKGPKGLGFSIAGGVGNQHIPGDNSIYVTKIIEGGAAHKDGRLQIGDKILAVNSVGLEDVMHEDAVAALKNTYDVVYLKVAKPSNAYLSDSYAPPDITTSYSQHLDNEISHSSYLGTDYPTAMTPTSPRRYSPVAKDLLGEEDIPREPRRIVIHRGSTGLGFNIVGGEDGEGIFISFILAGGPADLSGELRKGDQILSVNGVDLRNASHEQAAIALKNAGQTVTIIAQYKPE
TEST_DESCRIPTION: G assay: biotinylated peptide on plate-bound GST-PDZ fusion, OD 450 nm
Ends that are not written are not given here. * marks the point of attachment. Biotin = O=C1N[C@H]2[C@H](CS[C@H]2CCCCC(=O)*)N1
MEASURE: binding result

Biotin-DTPSSSYTQSTMDHDLHDAL (Only the last four residues are seen in the excerpts) [CC CKR-4 C-terminal peptide AA44L]: no binding
Biotin-PKQANGGAYQKPTKQEEFYA (also called CD138 (syndecan-1); CD138 (syndecan)) [CD138 C-terminal peptide AA18L, biotinylated]: no binding
Biotin-GKGKSIGRAPEASLQDKEGA (Only the last four residues are seen in the excerpts) [CC CKR-2 C-terminal peptide AA42L]: no binding
Biotin-PYGTAMEKAQLKPPATSDA (also called CD49E (alpha-4)) [CD49E C-terminal peptide AA11L, biotinylated]: no binding
